System: HL-60
measurement.description: Cytotoxicity against human HL60 cells after 2 days by automatic ELISA reader system
Type: functional, cell-based
condition.parameters: HL-60, 48 h
pIC50: −log10 of the molar value. Counter-ions that a name gives are not always drawn.

[
  {
    "compound": "Oc1cccc(-c2cc(-c3ccccc3)nc(-c3cccnc3)c2)c1",
    "pIC50": 4.90
  },
  {
    "compound": "Oc1ccccc1-c1cc(-c2ccccc2)cc(-c2ccccc2O)n1",
    "pIC50": 4.65
  },
  {
    "compound": "Oc1cccc(-c2cc(-c3ccccc3)cc(-c3ccsc3)n2)c1",
    "pIC50": 4.99
  },
  {
    "compound": "COc1cc([C@@H]2c3cc4c(cc3[C@@H](O[C@@H]3O[C@@H]5CO[C@@H](C)O[C@H]5[C@H](O)[C@H]3O)[C@H]3COC(=O)[C@H]23)OCO4)cc(OC)c1O [ETOPOSIDE]",
    "pIC50": 6.00
  },
  {
    "compound": "Oc1ccc(-c2cc(-c3ccccc3)cc(-c3ccsc3)n2)cc1",
    "pIC50": 5.44
  },
  {
    "compound": "Oc1cccc(-c2cc(-c3ccccc3)nc(-c3ccncc3)c2)c1",
    "pIC50": 4.90
  },
  {
    "compound": "Oc1cccc(-c2cc(-c3ccccc3)cc(-c3ccco3)n2)c1",
    "pIC50": 5.00
  },
  {
    "compound": "Oc1ccc(-c2cc(-c3ccccc3)cc(-c3ccccc3)n2)cc1",
    "pIC50": 5.85
  },
  {
    "compound": "Oc1cccc(-c2cc(-c3ccccc3)nc(-c3ccccc3)c2)c1",
    "pIC50": 4.87
  },
  {
    "compound": "Oc1ccccc1-c1cc(-c2ccccc2)nc(-c2ccco2)c1",
    "pIC50": 5.72
  },
  {
    "compound": "Oc1cccc(-c2cc(-c3ccccc3)nc(-c3ccco3)c2)c1",
    "pIC50": 4.62
  },
  {
    "compound": "Oc1cccc(-c2cc(-c3ccccc3)cc(-c3ccncc3)n2)c1",
    "pIC50": 4.62
  },
  {
    "compound": "Oc1cccc(-c2cc(-c3ccccc3)nc(-c3ccsc3)c2)c1",
    "pIC50": 4.92
  },
  {
    "compound": "COc1cccc2c1C(=O)c1c(O)c3c(c(O)c1C2=O)C[C@@](O)(C(=O)CO)C[C@@H]3O[C@H]1C[C@H](N)[C@H](O)[C@H](C)O1 [DOXORUBICIN HYDROCHLORIDE]",
    "pIC50": 6.15
  },
  {
    "compound": "Oc1cccc(-c2cc(-c3ccccc3)cc(-c3cccc(O)c3)n2)c1",
    "pIC50": 4.78
  },
  {
    "compound": "Oc1ccc(-c2cc(-c3ccccc3)nc(-c3ccco3)c2)cc1",
    "pIC50": 4.86
  },
  {
    "compound": "CC[C@@]1(O)C(=O)OCc2c1cc1n(c2=O)Cc2cc3ccccc3nc2-1",
    "pIC50": 7.00
  },
  {
    "compound": "Oc1ccc(-c2cc(-c3ccccc3)cc(-c3cccs3)n2)cc1",
    "pIC50": 5.77
  }
]
